Tested on: HeLa-MaTu-ADR, multidrug-resistant human cervical carcinoma cells
experiment-notes: Proliferation assay, HeLa-MaTu-ADR (crystal violet)
Assay type: cell-based
test-parameters: Homo sapiens, 96 h, 4 days, read-out: Inhibition of HeLa-MaTu-ADR cell proliferation IC50
reported-property: pIC50
Numbers only, as −log10 of the molar value.

compound: CCOc1cc(F)ccc1-c1cc(Nc2cc(CS(C)(=O)=NC(=O)C(F)(F)F)cc(F)n2)ncc1F (racemic) [Example 27]
pIC50: 6.96
--
compound: COc1cc(CS(C)(=N)=O)cc(Nc2cc(-c3ccc(F)cc3OC)c(F)cn2)n1 (racemic) [Example 6]
pIC50: 7.52
--
compound: COc1cc(F)ccc1-c1cc(Nc2cc(CS(C)(=N)=O)ccn2)ncc1F (racemic) [Example 1]
pIC50: 7.21

// each listed compound needs a value for pIC50
1. CCS(=N)(=O)Cc1ccnc(Nc2cc(-c3ccc(F)cc3OC)c(F)cn2)c1 (racemic) [Example 30]
2. COc1cc(F)ccc1-c1cc(Nc2cc(CS(C)(=N)=O)cc(F)n2)ncc1F (single isomer, unassigned; (+)) [Example 19]
3. COc1cc(F)ccc1-c1cc(Nc2cc(CS(C)(=O)=NC#N)ccn2)ncc1F (single isomer, unassigned) [Example 10]

7.13
7.19
7.49

// each listed compound needs a value for pIC50
1. COc1cc(F)ccc1-c1cc(Nc2cc(CS(C)(=O)=NC(C)=O)ccn2)ncc1F (racemic) [Example 13]
2. COc1cc(F)ccc1-c1cc(Nc2cc(CS(C)(=N)=O)cc(C)n2)ncc1F (racemic) [Example 4]
3. COc1cc(F)ccc1-c1cc(Nc2cc(CS(C)(=N)=O)cc(C(F)(F)F)n2)ncc1F (racemic) [Example 21]
4. COc1cc(F)ccc1-c1cc(Nc2cc(CS(C)(=O)=NC(=O)C(F)(F)F)cc(C(F)(F)F)n2)ncc1F (single isomer, unassigned; (+)) [Example 24]
5. COc1cc(F)ccc1-c1cc(Nc2cc(CS(C)(=N)=O)cc(Cl)n2)ncc1F (racemic) [Example 7]
6. COc1cc(F)ccc1-c1cc(Nc2cc(CS(C)(=O)=NC(=O)C(F)(F)F)cc(F)n2)ncc1F (racemic) [Example 18]
7. COc1cc(F)ccc1-c1cc(Nc2cc(CS(C)(=N)=O)cc(F)n2)ncc1F (racemic) [Example 17]
8. CCOC(=O)N=S(C)(=O)Cc1ccnc(Nc2cc(-c3ccc(F)cc3OC)c(F)cn2)c1 (racemic) [Example 11]

[6.96, 7.47, 7.52, 7.52, 7.49, 7.46, 7.48, 7.00]

// each listed compound needs a value for pIC50
1. COc1cc(F)ccc1-c1cc(Nc2cc(CS(C)(=N)=O)cc(C)n2)ncc1F (single isomer, unassigned; (+)) [Example 32]
2. CCNC(=O)N=S(C)(=O)Cc1ccnc(Nc2cc(-c3ccc(F)cc3OC)c(F)cn2)c1 (racemic) [Example 12]
3. CCOC(=O)N=S(C)(=O)Cc1cc(Nc2cc(-c3ccc(F)cc3OC)c(F)cn2)nc(OC)c1 (racemic) [Example 15]
4. COc1cc(F)ccc1-c1cc(Nc2cc(CS(=N)(=O)CCO)ccn2)ncc1F (racemic) [Example 8]
5. CCOc1cc(F)ccc1-c1cc(Nc2cc(CS(C)(=N)=O)cc(F)n2)ncc1F (single isomer, unassigned; (+)) [Example 28]
6. CCOc1cc(F)ccc1-c1cc(Nc2cc(CS(C)(=N)=O)cc(F)n2)ncc1F (racemic) [Example 26]
7. COc1cc(F)ccc1-c1cc(Nc2cc(CS(C)(=N)=O)cc(C(F)(F)F)n2)ncc1F (single isomer, unassigned; (+)) [Example 22]

1. 7.28
2. 7.00
3. 7.51
4. 6.70
5. 6.92
6. 7.31
7. 7.52
